# target under test: Cyclin-dependent kinase 7/ cyclin H (Homo sapiens) (UniProt P51946+P50613)
# applied conditions: at 1 µM
Would you mind telling me the reported residual activity of each entry?
Lab book: enter the figure in %, no units written.

Looking up CCN(CC)CCCCN1c2ccccc2Oc2ccc(Cl)cc21 , I see its residual activity listed as 89

Looking up Cn1nc2c3c(cccc31)C(=O)c1ccccc1-2 , I see its residual activity listed as 91

Looking up O=c1cc(-c2cccc3c2Sc2ccccc2S3)oc(N2CCOCC2)c1 , I see its residual activity listed as 121

Looking up CN(C)c1ccc(/C=C2\C(=O)Nc3ccccc32)cc1 , I see its residual activity listed as 88

Looking up N#Cc1cnc2cnc(NCc3cccnc3)cc2c1Nc1ccc(F)c(Cl)c1 , I see its residual activity listed as 71

Looking up CO[C@H]1C[C@@H]2CC[C@@H](C)[C@@](O)(O2)C(=O)C(=O)N2CCCC[C@H]2C(=O)O[C@H]([C@H](C)C[C@@H]2CC[C@@H](O)[C@H](OC)C2)CC(=O)[C@H](C)/C=C(\C)[C@@H](O)[C@@H](OC)C(=O)[C@H](C)C[C@H](C)/C=C/C=C/C=C/1C , I see its residual activity listed as 88

Looking up CNc1cc2c(Nc3cccc(Br)c3)ncnc2cn1 , I see its residual activity listed as 87

Looking up Cc1cccc(-c2[nH]c(C(C)(C)C)nc2-c2ccc3c(c2)OCO3)n1 , I see its residual activity listed as 100

Looking up CN(C)CCCn1cc(C2=C(c3c[nH]c4ccccc34)C(=O)NC2=O)c2ccccc21 , I see its residual activity listed as 47

Looking up c1ccc2c(-c3ccncc3)c[nH]c2c1 , I see its residual activity listed as 83

Looking up O=C(Nc1cccc(Nc2nccc(Nc3cccc(C(F)(F)F)c3)n2)c1)C1CC1 , I see its residual activity listed as 92

Looking up O=c1c2ccccc2[nH]c(=S)n1CCN1CCC(=C(c2ccc(F)cc2)c2ccc(F)cc2)CC1 , I see its residual activity listed as 88

Looking up CCC(=O)Nc1ccc2ncnc(Nc3cccc(Br)c3)c2c1 , I see its residual activity listed as 86

Looking up COc1cc2ncnc(Nc3ccc(O)c(Br)c3)c2cc1OC , I see its residual activity listed as 81

Looking up Cc1cncc2cccc(S(=O)(=O)N3CCCN(C(=O)CN)C[C@H]3C)c12 , I see its residual activity listed as 78

Looking up Cc1cc(Nc2nc(-c3ccccc3)nc3ccccc23)n[nH]1 , I see its residual activity listed as 19

Looking up NC(=O)c1ccc2[nH]c(-c3ccc(Oc4ccc(Cl)cc4)cc3)nc2c1 , I see its residual activity listed as 99

Looking up O=Nc1c(-c2c(O)[nH]c3ccccc23)[nH]c2ccccc12 , I see its residual activity listed as 42

Looking up O=C1Nc2ccc(Br)cc2/C1=C\c1cc2c([nH]1)CCCC2 , I see its residual activity listed as 83

Looking up Nc1n[nH]c2nnc(-c3c(-c4ccccc4)nn4ccccc34)cc12 , I see its residual activity listed as 106

Looking up CC(=O)c1ccc(N2CCOCC2)cc1O , I see its residual activity listed as 91

---

# target under test: Tyrosine-protein kinase HCK (Homo sapiens)
# applied conditions: at 10 µM
residual activity under 30% gets yes (1), anything at or over 30% gets no (0).

Please indicate whether the reported residual activity of c1ccc(-c2n[nH]c3c2oc2ccccc23)cc1 is strictly below 30%.
no (0)

Please indicate whether the reported residual activity of Oc1ccc(-c2nc(-c3ccc(F)cc3)c(-c3ccncc3)[nH]2)cc1 is strictly below 30%.
yes (1)

Please indicate whether the reported residual activity of Nc1ccc2ncnc(NCCc3ccc(Oc4ccccc4)cc3)c2c1 is strictly below 30%.
no (0)

Please indicate whether the reported residual activity of O=C(Nc1cccc(Nc2nccc(Nc3cccc(C(F)(F)F)c3)n2)c1)C1CC1 is strictly below 30%.
yes (1)

Please indicate whether the reported residual activity of COc1ccc(OC)c2c(=S)c3ccccc3[nH]c12 is strictly below 30%.
no (0)

---

# target under test: Serine/threonine-protein kinase TAO3 (Homo sapiens)
# Sequence (whole entry): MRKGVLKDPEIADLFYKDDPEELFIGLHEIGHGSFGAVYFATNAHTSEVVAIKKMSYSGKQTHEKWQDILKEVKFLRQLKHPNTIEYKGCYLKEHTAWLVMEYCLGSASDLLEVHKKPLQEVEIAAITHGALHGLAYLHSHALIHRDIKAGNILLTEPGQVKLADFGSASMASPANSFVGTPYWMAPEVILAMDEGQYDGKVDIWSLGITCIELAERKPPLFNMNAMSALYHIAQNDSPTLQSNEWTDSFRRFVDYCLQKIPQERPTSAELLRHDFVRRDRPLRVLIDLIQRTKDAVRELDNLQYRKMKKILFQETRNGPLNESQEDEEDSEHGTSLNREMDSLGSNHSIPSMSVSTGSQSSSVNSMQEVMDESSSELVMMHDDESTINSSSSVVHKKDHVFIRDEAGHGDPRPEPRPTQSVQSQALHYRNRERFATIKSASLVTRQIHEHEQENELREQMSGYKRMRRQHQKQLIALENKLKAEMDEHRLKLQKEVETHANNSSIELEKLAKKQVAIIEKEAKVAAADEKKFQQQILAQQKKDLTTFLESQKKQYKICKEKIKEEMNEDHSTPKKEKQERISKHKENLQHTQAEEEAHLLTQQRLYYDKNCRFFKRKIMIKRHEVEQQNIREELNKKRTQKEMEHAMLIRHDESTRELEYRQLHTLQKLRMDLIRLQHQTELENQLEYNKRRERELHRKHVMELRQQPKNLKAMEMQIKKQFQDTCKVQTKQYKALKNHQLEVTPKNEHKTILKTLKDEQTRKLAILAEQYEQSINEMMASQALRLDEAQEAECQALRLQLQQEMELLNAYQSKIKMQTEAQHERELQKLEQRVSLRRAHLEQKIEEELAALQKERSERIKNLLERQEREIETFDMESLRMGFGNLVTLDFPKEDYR
# applied conditions: at 1 µM
Would you mind telling me the reported residual activity of each entry?

# c1ccc(-c2n[nH]cc2-c2ccnc3ccccc23)nc1 with Serine/threonine-protein kinase TAO3 (Homo sapiens): residual activity is 91%

# Cn1cc(/C=C2\C(=O)Nc3ccc(S(N)(=O)=O)cc32)c2ccccc21 with Serine/threonine-protein kinase TAO3 (Homo sapiens): residual activity is 74%

# Nc1n[nH]c2nnc(-c3c(-c4ccccc4)nn4ccccc34)cc12 with Serine/threonine-protein kinase TAO3 (Homo sapiens): residual activity is 87%

# CNc1cc2c(Nc3cccc(Br)c3)ncnc2cn1 with Serine/threonine-protein kinase TAO3 (Homo sapiens): residual activity is 95%

# CC(C)n1cnc2/c(=N/c3cccc(Cl)c3)nc(NCCO)[nH]c21 with Serine/threonine-protein kinase TAO3 (Homo sapiens): residual activity is 93%

# Cc1cncc2cccc(S(=O)(=O)N3CCCN(C(=O)CN)C[C@H]3C)c12 with Serine/threonine-protein kinase TAO3 (Homo sapiens): residual activity is 93%

# Cc1cc2ncc(-c3ccccc3)nc2cc1C with Serine/threonine-protein kinase TAO3 (Homo sapiens): residual activity is 100%

# O=C1NC(=O)/C(=C\c2ccc3nccnc3c2)S1 with Serine/threonine-protein kinase TAO3 (Homo sapiens): residual activity is 72%

# Oc1ccc(-c2nc(-c3ccc(F)cc3)c(-c3ccncc3)[nH]2)cc1 with Serine/threonine-protein kinase TAO3 (Homo sapiens): residual activity is 111%

# O=C1Nc2cc(Br)ccc2/C1=C1/Nc2ccccc2/C1=N\O with Serine/threonine-protein kinase TAO3 (Homo sapiens): residual activity is 68%

# Cc1cccc(-c2[nH]c(C(C)(C)C)nc2-c2ccc3c(c2)OCO3)n1 with Serine/threonine-protein kinase TAO3 (Homo sapiens): residual activity is 101%

# c1ccc2c(-c3ccncc3)c[nH]c2c1 with Serine/threonine-protein kinase TAO3 (Homo sapiens): residual activity is 98%

# CN(C)CCCn1cc(C2=C(c3c[nH]c4ccccc34)C(=O)NC2=O)c2ccccc21 with Serine/threonine-protein kinase TAO3 (Homo sapiens): residual activity is 88%

# CO[C@H]1C[C@@H]2CC[C@@H](C)[C@@](O)(O2)C(=O)C(=O)N2CCCC[C@H]2C(=O)O[C@H]([C@H](C)C[C@@H]2CC[C@@H](O)[C@H](OC)C2)CC(=O)[C@H](C)/C=C(\C)[C@@H](O)[C@@H](OC)C(=O)[C@H](C)C[C@H](C)/C=C/C=C/C=C/1C with Serine/threonine-protein kinase TAO3 (Homo sapiens): residual activity is 97%

# Nc1nc(Nc2ccc(S(N)(=O)=O)cc2)nn1C(=S)Nc1c(F)cccc1F with Serine/threonine-protein kinase TAO3 (Homo sapiens): residual activity is 0%

# CC[n+]1c(/C=C/N(C)c2ccccc2)n(-c2ccccc2)c2ccc(-c3nc4ccccc4s3)cc21 with Serine/threonine-protein kinase TAO3 (Homo sapiens): residual activity is 95%

# CO[C@@H]1[C@H](N(C)C(=O)c2ccccc2)C[C@H]2O[C@]1(C)n1c3ccccc3c3c4c(c5c6ccccc6n2c5c31)C(=O)NC4 with Serine/threonine-protein kinase TAO3 (Homo sapiens): residual activity is 42%

# O=C1NC(=O)c2cc(Nc3ccc(F)cc3)c(Nc3ccc(F)cc3)cc21 with Serine/threonine-protein kinase TAO3 (Homo sapiens): residual activity is 79%

# COc1ccc(OC)c2c(=S)c3ccccc3[nH]c12 with Serine/threonine-protein kinase TAO3 (Homo sapiens): residual activity is 96%

# CCN(CC)C(=O)c1ccc(Nc2nc(OCC3CCCCC3)c3nc[nH]c3n2)cc1 with Serine/threonine-protein kinase TAO3 (Homo sapiens): residual activity is 70%

# CN(C)c1ccc(/C=C2\C(=O)Nc3ccccc32)cc1 with Serine/threonine-protein kinase TAO3 (Homo sapiens): residual activity is 100%

# O=C(O)c1ccc2c3c1cccc3c(=O)n1c3ccccc3nc21 with Serine/threonine-protein kinase TAO3 (Homo sapiens): residual activity is 91%
